List of interaction score values.
- target of assay: T1, 4H953-bH
- T1 chain: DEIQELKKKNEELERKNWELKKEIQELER
- run description: two-hybrid library CCNG1;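 further: natural log of median RNA to DNA barcode read ratio; higher means stronger binding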
measure name: interaction score

[[record]]
binder = "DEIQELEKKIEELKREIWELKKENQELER [4H331-bH]"
measure_name = "interaction score"
endpoint_value = -0.344

[[record]]
binder = "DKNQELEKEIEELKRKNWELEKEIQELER [4H3185-bH]"
measure_name = "interaction score"
endpoint_value = -1.21

[[record]]
binder = "DKNQELKKENEELKREIWELEKKIQELKR [4H3782-bH]"
measure_name = "interaction score"
endpoint_value = -0.497

[[record]]
binder = "DEIQELKKENEELERKIWELKKKNQELER [4H687-bH]"
measure_name = "interaction score"
endpoint_value = -0.5

[[record]]
binder = "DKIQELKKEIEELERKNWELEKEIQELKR [4H2610-bH]"
measure_name = "interaction score"
endpoint_value = -1.02

[[record]]
binder = "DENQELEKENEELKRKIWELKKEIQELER [4H1257-bH]"
measure_name = "interaction score"
endpoint_value = -0.825

[[record]]
binder = "DEIQELKKKIEELKRENWELEKKNQELER [4H855-bH]"
measure_name = "interaction score"
endpoint_value = -1.14

[[record]]
binder = "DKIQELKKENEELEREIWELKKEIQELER [4H2697-bH]"
measure_name = "interaction score"
endpoint_value = -0.201

